Listing: z-score of subpopulation abundance of selected compounds
Test system: Saccharomyces cerevisiae BY4741 SeMeCo community
Assay: z-score of subpopulation abundance vs DMSO median, subpopulation auxotrophic for HL; higher = larger share of this subpopulation than in DMSO controls
Conditions: 10 µM; 24 h; SM minimal medium; subpopulation (auxotrophy): HL
Counter-ions that a name gives are not always drawn.
Reply: number alone, nothing else.

Use the examples below as a reference point.
INSERT INTO assay_data (compound, result) VALUES
  ('Cc1ccc(-c2ncc(Cl)cc2-c2ccc(S(C)(=O)=O)cc2)cn1 [Etoricoxib]', -0.03),
  ('COC(=O)C1=C(C)NC(C)=C(C(=O)OC)C1c1ccccc1[N+](=O)[O-] [Nifedipine]', -0.95),
  ('C[N+]1(C)CCC(OC(=O)C(O)(c2ccccc2)C2CCCC2)C1 (stereo not drawn) [Glycopyrrolate]', -0.5),
  ('COCCCOc1ccnc(C[S+]([O-])c2nc3ccccc3[nH]2)c1C (stereo not drawn) [Rabeprazole]', 1.62),
  ('Cn1nnnc1SCC1=C(C(=O)O)N2C(=O)[C@@H](NC(=O)[C@H](OC=O)c3ccccc3)[C@H]2SC1 [Cefamandole nafate]', 0.65);

Saccharomyces cerevisiae BY4741 SeMeCo community / z-score of subpopulation abundance / CC1=Nc2ccc(Cl)cc2S(=O)(=O)N1 [Diazoxide] : value?
-0.72

Saccharomyces cerevisiae BY4741 SeMeCo community / z-score of subpopulation abundance / `O=C(NCCN1CCOCC1)c1ccc(Cl)cc1` : value?
-0.31

Saccharomyces cerevisiae BY4741 SeMeCo community / z-score of subpopulation abundance / Nc1ccc(S(=O)(=O)Nc2ccccn2)cc1 [Sulfapyridine] : value?
-0.68

Saccharomyces cerevisiae BY4741 SeMeCo community / z-score of subpopulation abundance / C/C=C\c1ccc(O)c(OC)c1 [Isoeugenol] : value?
-0.5

Saccharomyces cerevisiae BY4741 SeMeCo community / z-score of subpopulation abundance / O=c1[nH]cnc2c1ncn2[C@@H]1O[C@H](CO)[C@@H](O)[C@H]1O [Isoprinosine] : value?
-0.64

Saccharomyces cerevisiae BY4741 SeMeCo community / z-score of subpopulation abundance / CCCCc1oc2ccc(NS(C)(=O)=O)cc2c1C(=O)c1ccc(OCCCN(CCCC)CCCC)cc1 [Dronedarone HCl] : value?
1.2

Saccharomyces cerevisiae BY4741 SeMeCo community / z-score of subpopulation abundance / CC[N+](CC)(CC)CC [Tetraethylammonium bromide] : value?
-0.73

Saccharomyces cerevisiae BY4741 SeMeCo community / z-score of subpopulation abundance / Cc1cc(-c2ccc(/N=N/c3ccc4c(S(=O)(=O)O)cc(S(=O)(=O)O)c(N)c4c3O)c(C)c2)ccc1/N=N/c1ccc2c(S(=O)(=O)O)cc(S(=O)(=O)O)c(N)c2c1O [Evans Blue] : value?
8.09

Saccharomyces cerevisiae BY4741 SeMeCo community / z-score of subpopulation abundance / O=C(c1ccccc1)c1ccc2n1CCC2C(=O)O (stereo not drawn) [Ketorolac tromethamine salt] : value?
-0.19

Saccharomyces cerevisiae BY4741 SeMeCo community / z-score of subpopulation abundance / C[C@H](NCc1ccc(OCc2cccc(F)c2)cc1)C(N)=O [Safinamide Mesylate] : value?
0.64

Saccharomyces cerevisiae BY4741 SeMeCo community / z-score of subpopulation abundance / CS(=O)(=O)c1ccc([C@@H](O)[C@@H](CF)NC(=O)C(Cl)Cl)cc1 [Florfenicol] : value?
-0.56

Saccharomyces cerevisiae BY4741 SeMeCo community / z-score of subpopulation abundance / CN1CCN(c2cc3c(cc2F)c(=O)c(C(=O)O)cn3-c2ccc(F)cc2)CC1 [Difloxacin hydrochloride] : value?
-1.38

Saccharomyces cerevisiae BY4741 SeMeCo community / z-score of subpopulation abundance / CNCCCN1c2ccccc2CCc2ccccc21 [Desipramine Hydrochloride] : value?
0.02

Saccharomyces cerevisiae BY4741 SeMeCo community / z-score of subpopulation abundance / CCCCC(F)(F)[C@@]1(O)CC[C@H]2[C@@H](CC(=O)[C@@H]2CCCCCCC(=O)O)O1 [Lubiprostone] : value?
-0.29

Saccharomyces cerevisiae BY4741 SeMeCo community / z-score of subpopulation abundance / COc1ccccc1OCC(O)CN1CCN(CC(=O)Nc2c(C)cccc2C)CC1 (stereo not drawn) [Ranolazine] : value?
-0.42

Saccharomyces cerevisiae BY4741 SeMeCo community / z-score of subpopulation abundance / CNCC[C@H](Oc1cccc2ccccc12)c1cccs1 [Duloxetine HCl] : value?
-1.07

Saccharomyces cerevisiae BY4741 SeMeCo community / z-score of subpopulation abundance / NC[C@H]1O[C@H](O[C@H]2[C@H](O)[C@@H](O[C@H]3O[C@H](CO)[C@@H](O)[C@H](N)[C@H]3O)[C@H](N)C[C@@H]2N)[C@H](O)[C@@H](O)[C@@H]1O [Kanamycin sulfate] : value?
1.08

Saccharomyces cerevisiae BY4741 SeMeCo community / z-score of subpopulation abundance / O=C1CN(/N=C/c2ccc(-c3ccc([N+](=O)[O-])cc3)o2)C(=O)N1 [Dantrolene sodium hemiheptahydrate] : value?
1.61
